Sourced from patent US6383766B1

System: biotinylated sheep anti-cortisol gamma globulin (anti-cortisol antibody)
assay_text: VITROS ECi chemiluminescence competitive immunoassay, cross-reactivity (50% displacement of HRP-labeled conjugate)
Format: binding
protocol_conditions: HRP labeled reduced cortisol-3-CMO-BSA (HRP-RC) as label; cortisol conc. displacing 50% / cross-reactant conc. displacing 50% x 100
test_readout: Percent Cross-Reactivity, HRP-RC Invention Label (%)

smiles_representation	unit_text	value
C[C@]12CCC(=O)C=C1CC[C@@H]1[C@@H]2[C@@H](O)C[C@@]2(C)[C@H]1CC[C@]2(O)C(=O)CO	%	100
C[C@]12C=CC(=O)C=C1CC[C@@H]1[C@@H]2[C@@H](O)C[C@@]2(C)[C@H]1CC[C@]2(O)C(=O)CO	%	24.6
C[C@]12CCC(=O)C=C1CC[C@@H]1[C@@H]2C(=O)C[C@@]2(C)[C@H]1CC[C@]2(O)C(=O)CO	%	1.8
C[C@]12C[C@H](O)[C@H]3[C@@H](CCC4=CC(=O)CC[C@@]43C)[C@@H]1CC[C@@H]2C(=O)CO	%	3.3
C[C@]12CCC(=O)C=C1CC[C@@H]1[C@@H]2CC[C@@]2(C)[C@H]1CC[C@]2(O)C(=O)CO	%	2.2

----------
Tested on: biotinylated sheep anti-cortisol gamma globulin (anti-cortisol antibody)
assay_text: VITROS ECi chemiluminescence competitive immunoassay, cross-reactivity (50% displacement of HRP-labeled conjugate)
Format: binding
protocol_conditions: comparative HRP labeled nonreduced cortisol conjugate (HRP-NRC) as label; cortisol conc. displacing 50% / cross-reactant conc. displacing 50% x 100
Method: Evaluation of the HRP labeled reduced cortisol-3-CMO-BSA (hereinafter referred to as HRP-RC conjugate) was evaluated using an Ortho-Clinical Diagnostic VITROS ECi chemiluminesence-based assay methodology. […] A 200 μL aliquot of the above-indicated signal reagent solution (100 μL of part A and 100 μL of part B combined just prior to use) was then added to the sample container. The solution was incubated for 5 minutes at 37° C., and the chemiluminesence intensity was then determined. […]
Listed below: Percent Cross-Reactivity, HRP-NRC Comparative Label values for each entry.
test_readout: Percent Cross-Reactivity, HRP-NRC Comparative Label (%)

compound	value
C[C@]12CCC(=O)C=C1CC[C@@H]1[C@@H]2[C@@H](O)C[C@@]2(C)[C@H]1CC[C@]2(O)C(=O)CO [cortisol]	100
C[C@]12C[C@H](O)[C@H]3[C@@H](CCC4=CC(=O)CC[C@@]43C)[C@@H]1CC[C@@H]2C(=O)CO [corticosterone]	4.4
C[C@]12CCC(=O)C=C1CC[C@@H]1[C@@H]2CC[C@@]2(C)[C@H]1CC[C@]2(O)C(=O)CO [11-deoxycortisol]	28.4
C[C@]12CCC(=O)C=C1CC[C@@H]1[C@@H]2C(=O)C[C@@]2(C)[C@H]1CC[C@]2(O)C(=O)CO [cortisone]	5.5
C[C@]12C=CC(=O)C=C1CC[C@@H]1[C@@H]2[C@@H](O)C[C@@]2(C)[C@H]1CC[C@]2(O)C(=O)CO [prednisolone]	34.8
